# method.notes: Pharmacokinetics/tissue distribution of GQD constituents in the livers of mice after oral GQD
# Type: in vivo, Kunming mice
# experimental.setup: liver, mice, oral GQD extract […]
Marks after values point to notes of the source that are not given here.
property.name: T1/2

compound="COc1ccc2cc3[n+](cc2c1OC)CCc1cc2c(cc1-3)OCO2 [Berberine, berberine]" property_name=T1/2 obs_value="10.1# h"
compound="COc1ccc2cc3[n+](cc2c1O)CCc1cc2c(cc1-3)OCO2 [Berberrubine, berberrubine]" property_name=T1/2 obs_value="18.2# h"
compound="CC1(C)[C@@H](O)CC[C@]2(C)[C@H]3C(=O)C=C4[C@@H]5C[C@@](C)(C(=O)O)CC[C@]5(C)CC[C@@]4(C)[C@]3(C)CC[C@@H]12 [Glycyrrhetinic acid, glycyrrhetinic acid]" property_name=T1/2 obs_value="6.6# h"
